Tested on: Bloodstream form of Trypanosoma brucei, strain Lister 427
Assay: Trypanosoma brucei growth inhibition assay (CellTiter-Glo, 24 h)
Format: cell-based
Details: Trypanosoma brucei; T. Brucei Growth Inibition Assay, class symbols; read-out: T. Brucei GI EC50
pEC50: −log10 of the molar value.
Recorded pEC50, one value per entry.

COc1ccc2nc(C(F)(F)F)n(CC(=O)N3CC[C@H](NCc4cnoc4)C[C@H]3c3ncc(-c4cc5ccccc5nc4OC)[nH]3)c2c1 : > 7.00
COc1ccc2nc(C(F)(F)F)n(CC(=O)N3CCN(C4CCS(=O)(=O)CC4)C[C@H]3c3ncc(-c4cc5ccccc5nc4OC)[nH]3)c2c1 : > 7.00
COc1ccc2[nH]c(C)c(CC(=O)N3CCN(C)CC3c3ncc(-c4ccccc4)[nH]3)c2c1 (stereo not shown) : 5.30 to 6.00
COc1ccc2nc(C(F)(F)F)n(CC(=O)N3C[C@H](NC4CCOC4)CC[C@H]3c3ncc(-c4cc5ccccc5nc4OC)[nH]3)c2c1 (stereo partly shown) : > 7.00
COc1ccc2nc(C)n(CC(=O)N3CCN(Cc4cnccn4)CCC3c3ncc(-c4cc5ccccc5nc4OC)[nH]3)c2c1 (stereo not shown) : 6.30 to 7.00
COc1ccc2nc(C(F)(F)F)n(CC(=O)N3CCN(C4CCC4)CCC3c3ncc(-c4cc5ccccc5nc4OC)[nH]3)c2c1 (stereo not shown) : > 7.00

Okay, next one:
Lookup: Look at this compound and give its reported pEC50. COc1nc2ccccc2cc1-c1cnc(C2CN([S+]([O-])C(C)C)CCN2C(=O)Cc2c(C)[nH]c3ccc(F)cc23)[nH]1 (stereo not shown)
Found: 5.30 to 6.00

---

Recorded pEC50, one value per entry.
Test system: Bloodstream form of Trypanosoma brucei, strain Lister 427
Assay: Trypanosoma brucei growth inhibition assay (CellTiter-Glo, 24 h)
Type: cell-based
Details: Trypanosoma brucei; T. Brucei Growth Inibition Assay, class symbols; read-out: T. Brucei GI EC50
pEC50: −log10 of the molar value.

Cc1[nH]c2ccccc2c1CC(=O)N1CCN(CC2CC2)CC1c1ncc(-c2ccc3ccccc3c2)[nH]1 (stereo not shown) : 6.30 to 7.00
COc1ccc2nc(C(F)(F)F)n(CC(=O)N3CCN(Cc4noc(C)n4)CCC3c3ncc(-c4cc5ccccc5nc4OC)[nH]3)c2c1 (stereo not shown) : 6.30 to 7.00
COc1ccc2nc(C(F)(F)F)n(CC(=O)N3CCN(CCc4csc(C)n4)C[C@H]3c3ncc(-c4cc5ccccc5nc4OC)[nH]3)c2c1 : > 7.00
COc1nc2ccccc2cc1-c1cnc([C@@H]2CN(C3CCOCC3)CCN2C(=O)Cn2c(C(F)(F)F)nc3ccccc32)[nH]1 : > 7.00
COc1ccc2nc(C)n(CC(=O)N3CCN(Cc4nnc(C)o4)C[C@H]3c3ncc(-c4cc5ccccc5nc4OC)[nH]3)c2c1 : 6.30 to 7.00
COc1ccc2nc(C(F)(F)F)n(CC(=O)N3CCN(CC4CCOC4)CCC3c3ncc(-c4cc5ccccc5nc4OC)[nH]3)c2c1 (stereo not shown) : > 7.00

Okay, next one:
Lookup: Look at this compound and give its reported pEC50. COc1nc2ccccc2cc1-c1cnc(C2CN(CC3CCOC3)CCN2C(=O)c2ccnc3ccccc23)[nH]1 (stereo not shown)
Found: 5.30 to 6.00

---

Recorded pEC50, one value per entry.
Tested on: Bloodstream form of Trypanosoma brucei, strain Lister 427
Experiment: Trypanosoma brucei growth inhibition assay (CellTiter-Glo, 24 h)
Assay type: cell-based
Details: Trypanosoma brucei; T. Brucei Growth Inibition Assay, class symbols; read-out: T. Brucei GI EC50
pEC50: −log10 of the molar value.

Below are worked cases with known answers.
COc1nc2ccccc2cc1-c1cnc(C2CN(CC3CCOC3)CCN2C(=O)Cc2ccc(-c3nccnc3C)cc2)[nH]1 (stereo not shown) : 5.30 to 6.00
CCCCCCN1CCN(C(=O)Cc2c[nH]c3ccc(O)cc23)C(c2ncc(-c3ccc4ccccc4c3)[nH]2)C1 (stereo not shown) : 5.30 to 6.00
COc1nc2ccccc2cc1-c1cnc(C2CN(CC3CCOC3)CCN2C(=O)c2c(-c3ccccc3)noc2C)[nH]1 (stereo not shown) : 5.30 to 6.00
COc1ccc2nc(C(F)(F)F)n(CC(=O)N3CCN(CC4CCOC4)C[C@H]3c3noc(-c4cc5ccccc5nc4OC)n3)c2c1 (stereo partly shown) : 5.30 to 6.00
COc1ccc2nc(C(F)(F)F)n(CC(=O)N3CCS(=O)(=O)CC3c3ncc(-c4cc5ccccc5nc4OC)[nH]3)c2c1 (stereo not shown) : 6.30 to 7.00

Lookup: Find pEC50 (Bloodstream form of Trypanosoma brucei, strain Lister 427) for the entry COc1nc2ccccc2cc1-c1cnc(C2CN(C)CCN2C(=O)Cc2c[nH]c3ncccc23)[nH]1 (stereo not shown)
Found: 5.30 to 6.00

Lookup: Find pEC50 (Bloodstream form of Trypanosoma brucei, strain Lister 427) for the entry CCCCCCN1CCN(C(=O)CC2C(=O)Nc3ccc(OC)cc32)C(c2ncc(-c3ccc4ccccc4c3)[nH]2)C1 (stereo not shown)
Found: 5.30 to 6.00

Values were extracted from patent US10815222B2.
